# Tested on: HIV-1 (strain IIIB)
# Assay Remarks: Antiviral activity assay in MT4 cells (propidium iodide based)
# Assay type: cell-based
# Condition Notes: Human immunodeficiency virus 1, IIIB; wild type HIV-1 virus, MT4 cells; read-out: Wildtype virus - IC50
Measurement Label: IC50

# annotated cases, reported IC50 shown
{"Compound": "Cc1cccc(COc2ccc(C[C@H](NC(=O)O[C@H]3CO[C@H]4OCC[C@H]43)[C@H](O)CN(CC(C)C)S(=O)(=O)c3ccc4c(c3)OCO4)cc2)c1 [Compound 377]", "IC50": "0.001 to 0.01 µM"}
{"Compound": "COc1ccc(-c2nc(COc3ccc(C[C@H](NC(=O)O[C@H]4CO[C@H]5OCC[C@H]54)[C@H](O)CN(CC(C)C)S(=O)(=O)c4ccc5c(c4)OCO5)cc3)no2)cc1 [Compound 391]", "IC50": "0.001 to 0.01 µM"}
{"Compound": "CC(=O)Oc1ccc(S(=O)(=O)N(CC(C)C)C[C@@H](O)[C@H](Cc2ccc(OCc3csc(C)n3)cc2)NC(=O)O[C@H]2CO[C@H]3OCC[C@H]32)cc1C [Compound 347]", "IC50": "0.001 to 0.01 µM"}
{"Compound": "CC(C)CN(C[C@@H](O)[C@H](Cc1ccc(Oc2nc(F)c(F)c(F)c2F)cc1)NC(=O)O[C@H]1CO[C@H]2OCC[C@H]21)S(=O)(=O)c1ccc2c(c1)OCO2 [Compound 332]", "IC50": "0.001 to 0.01 µM"}

Shift focus to the following entry.
## Input Which value of IC50 has been reported for N#CCOc1ccc(C[C@H](NC(=O)O[C@H]2CO[C@H]3OCC[C@H]32)[C@H](O)CN(CC2CCCC2)S(=O)(=O)c2ccc3c(c2)OCO3)cc1 [Compound 397] in the records?
## Output 0.01 to 0.1 µM
